test system: SF-268; experiment: Growth inhibition of human SF268 cells assessed as cell growth at 10^-6 M by sulforhodamine B assay; format: functional; conditions: read-out: Activity
Quantity Name: growth at 1 µM (%)
A number alone suffices; assume %.

Suppose we examine the compound CC1(C)C[C@@H](O)[C@]2(C(=O)O)CC[C@]3(C)C(=CC[C@@H]4[C@@]5(C)C/C(=C\C=C\c6ccccc6)C(=O)C(C)(C)[C@@H]5CC[C@]43C)[C@@H]2C1 ; what growth at 1 µM value has been reported?
90

Suppose we examine the compound CC(C)=CC(=O)O[C@@H]1CC(C)(C)C[C@H]2C3=CC[C@@H]4[C@@]5(C)CC[C@H](O)C(C)(C)[C@@H]5CC[C@@]4(C)[C@]3(C)CC[C@@]12C(=O)O [Reduced Lantadene B] ; what growth at 1 µM value has been reported?
95

Suppose we examine the compound CC(C)=CC(=O)O[C@@H]1CC(C)(C)C[C@H]2C3=CC[C@@H]4[C@@]5(C)CCC(=O)C(C)(C)[C@@H]5CC[C@@]4(C)[C@]3(C)CC[C@@]12C(=O)O ; what growth at 1 µM value has been reported?
93

Suppose we examine the compound C/C=C(/C)C(=O)O[C@@H]1CC(C)(C)C[C@H]2C3=CC[C@@H]4[C@@]5(C)CCC(=O)C(C)(C)[C@@H]5CC[C@@]4(C)[C@]3(C)CC[C@@]12C(=O)O [LANTADENE A] ; what growth at 1 µM value has been reported?
98

Suppose we examine the compound C/C=C(/C)C(=O)O[C@@H]1CC(C)(C)C[C@H]2C3=CC[C@@H]4[C@@]5(C)CC[C@H](O)C(C)(C)[C@@H]5CC[C@@]4(C)[C@]3(C)CC[C@@]12C(=O)O [Reduced Lantadene A] ; what growth at 1 µM value has been reported?
104

---

experiment: Growth inhibition of human Hs 578T cells assessed as cell growth at 10^-6 M by sulforhodamine B assay; assay type: functional; conditions: read-out: Activity
Hi there, I'd appreciate the recorded growth at 1 µM for every entry that follows.
A number alone suffices; assume %.

Suppose we examine the compound C/C=C(/C)C(=O)O[C@@H]1CC(C)(C)C[C@H]2C3=CC[C@@H]4[C@@]5(C)CC[C@H](O)C(C)(C)[C@@H]5CC[C@@]4(C)[C@]3(C)CC[C@@]12C(=O)O ; what growth at 1 µM value has been reported?
92

Suppose we examine the compound CC1(C)C[C@@H](O)[C@]2(C(=O)O)CC[C@]3(C)C(=CC[C@@H]4[C@@]5(C)C/C(=C\C=C\c6ccccc6)C(=O)C(C)(C)[C@@H]5CC[C@]43C)[C@@H]2C1 ; what growth at 1 µM value has been reported?
87

Suppose we examine the compound C/C=C(/C)C(=O)O[C@@H]1CC(C)(C)C[C@H]2C3=CC[C@@H]4[C@@]5(C)CCC(=O)C(C)(C)[C@@H]5CC[C@@]4(C)[C@]3(C)CC[C@@]12C(=O)O ; what growth at 1 µM value has been reported?
91

Suppose we examine the compound CC(C)=CC(=O)O[C@@H]1CC(C)(C)C[C@H]2C3=CC[C@@H]4[C@@]5(C)CCC(=O)C(C)(C)[C@@H]5CC[C@@]4(C)[C@]3(C)CC[C@@]12C(=O)O ; what growth at 1 µM value has been reported?
86

Suppose we examine the compound CC(C)=CC(=O)O[C@@H]1CC(C)(C)C[C@H]2C3=CC[C@@H]4[C@@]5(C)CC[C@H](O)C(C)(C)[C@@H]5CC[C@@]4(C)[C@]3(C)CC[C@@]12C(=O)O ; what growth at 1 µM value has been reported?
92

---

Hi there, I'd appreciate the recorded TGI for every entry that follows.
tested on: SK-MEL-28; test: Growth inhibition of human SK-MEL-28 cells by sulforhodamine B assay; type: functional; settings: read-out: pTGI (converted)
A number alone suffices; assume µM.

Suppose we examine the compound CC(C)=CC(=O)O[C@@H]1CC(C)(C)C[C@H]2C3=CC[C@@H]4[C@@]5(C)CC[C@H](O)C(C)(C)[C@@H]5CC[C@@]4(C)[C@]3(C)CC[C@@]12C(=O)O ; what TGI value has been reported?
20.4

Suppose we examine the compound C/C=C(/C)C(=O)O[C@@H]1CC(C)(C)C[C@H]2C3=CC[C@@H]4[C@@]5(C)CC[C@H](O)C(C)(C)[C@@H]5CC[C@@]4(C)[C@]3(C)CC[C@@]12C(=O)O ; what TGI value has been reported?
4.27

Suppose we examine the compound CC1(C)C[C@@H](O)[C@]2(C(=O)O)CC[C@]3(C)C(=CC[C@@H]4[C@@]5(C)C/C(=C\C=C\c6ccccc6)C(=O)C(C)(C)[C@@H]5CC[C@]43C)[C@@H]2C1 ; what TGI value has been reported?
17

---

test system: DU-145; test: Growth inhibition of human DU145 cells assessed as cell growth at 10^-8 M by sulforhodamine B assay; format: functional; conditions: read-out: Activity
Quantity Name: growth at 0.01 µM (%)
A number alone suffices; assume %.

Suppose we examine the molecule CC(C)=CC(=O)O[C@@H]1CC(C)(C)C[C@H]2C3=CC[C@@H]4[C@@]5(C)CCC(=O)C(C)(C)[C@@H]5CC[C@@]4(C)[C@]3(C)CC[C@@]12C(=O)O ; what growth at 0.01 µM value has been reported?
105

Suppose we examine the molecule CC(C)=CC(=O)O[C@@H]1CC(C)(C)C[C@H]2C3=CC[C@@H]4[C@@]5(C)CC[C@H](O)C(C)(C)[C@@H]5CC[C@@]4(C)[C@]3(C)CC[C@@]12C(=O)O [Reduced Lantadene B] ; what growth at 0.01 µM value has been reported?
101

Suppose we examine the molecule C/C=C(/C)C(=O)O[C@@H]1CC(C)(C)C[C@H]2C3=CC[C@@H]4[C@@]5(C)CC[C@H](O)C(C)(C)[C@@H]5CC[C@@]4(C)[C@]3(C)CC[C@@]12C(=O)O [Reduced Lantadene A] ; what growth at 0.01 µM value has been reported?
113

Suppose we examine the molecule C/C=C(/C)C(=O)O[C@@H]1CC(C)(C)C[C@H]2C3=CC[C@@H]4[C@@]5(C)CCC(=O)C(C)(C)[C@@H]5CC[C@@]4(C)[C@]3(C)CC[C@@]12C(=O)O [LANTADENE A] ; what growth at 0.01 µM value has been reported?
104

Suppose we examine the molecule CC1(C)C[C@@H](O)[C@]2(C(=O)O)CC[C@]3(C)C(=CC[C@@H]4[C@@]5(C)C/C(=C\C=C\c6ccccc6)C(=O)C(C)(C)[C@@H]5CC[C@]43C)[C@@H]2C1 ; what growth at 0.01 µM value has been reported?
106

---

system: DU-145; assay: Growth inhibition of human DU145 cells by sulforhodamine B assay; assay type: functional; details: read-out: pLC50 (the source's name) (converted)
Quantity Name: CC50 (µM)
A number alone suffices; assume µM.

Suppose we examine the compound CC1(C)C[C@@H](O)[C@]2(C(=O)O)CC[C@]3(C)C(=CC[C@@H]4[C@@]5(C)C/C(=C\C=C\c6ccccc6)C(=O)C(C)(C)[C@@H]5CC[C@]43C)[C@@H]2C1 ; what CC50 value has been reported?
41.7

Suppose we examine the compound CC(C)=CC(=O)O[C@@H]1CC(C)(C)C[C@H]2C3=CC[C@@H]4[C@@]5(C)CC[C@H](O)C(C)(C)[C@@H]5CC[C@@]4(C)[C@]3(C)CC[C@@]12C(=O)O ; what CC50 value has been reported?
61.7

Suppose we examine the compound CC(C)=CC(=O)O[C@@H]1CC(C)(C)C[C@H]2C3=CC[C@@H]4[C@@]5(C)CCC(=O)C(C)(C)[C@@H]5CC[C@@]4(C)[C@]3(C)CC[C@@]12C(=O)O ; what CC50 value has been reported?
97.7

---

test system: MDA-MB-468; test: Growth inhibition of human MDA-MB-468 cells by sulforhodamine B assay; format: functional; details: read-out: GI50
Quantity Name: GI50

Suppose we examine the molecule C/C=C(/C)C(=O)O[C@@H]1CC(C)(C)C[C@H]2C3=CC[C@@H]4[C@@]5(C)CC[C@H](O)C(C)(C)[C@@H]5CC[C@@]4(C)[C@]3(C)CC[C@@]12C(=O)O ; what GI50 value has been reported?
1680 nM

Suppose we examine the molecule CC(C)=CC(=O)O[C@@H]1CC(C)(C)C[C@H]2C3=CC[C@@H]4[C@@]5(C)CCC(=O)C(C)(C)[C@@H]5CC[C@@]4(C)[C@]3(C)CC[C@@]12C(=O)O ; what GI50 value has been reported?
2270 nM

Suppose we examine the molecule CC(C)=CC(=O)O[C@@H]1CC(C)(C)C[C@H]2C3=CC[C@@H]4[C@@]5(C)CC[C@H](O)C(C)(C)[C@@H]5CC[C@@]4(C)[C@]3(C)CC[C@@]12C(=O)O ; what GI50 value has been reported?
4170 nM

Suppose we examine the molecule CC1(C)C[C@@H](O)[C@]2(C(=O)O)CC[C@]3(C)C(=CC[C@@H]4[C@@]5(C)C/C(=C\C=C\c6ccccc6)C(=O)C(C)(C)[C@@H]5CC[C@]43C)[C@@H]2C1 ; what GI50 value has been reported?
3300 nM

Suppose we examine the molecule C/C=C(/C)C(=O)O[C@@H]1CC(C)(C)C[C@H]2C3=CC[C@@H]4[C@@]5(C)CCC(=O)C(C)(C)[C@@H]5CC[C@@]4(C)[C@]3(C)CC[C@@]12C(=O)O ; what GI50 value has been reported?
2580 nM
